This collection of values is drawn from patent US20120328625A1.

biological target: full length human Shh expressed on the cell surface (human, UniProt Q15465 24-462); assay: cell-based or functional assay
Listed here: items and their measured % Inh of Gli1 reporter, Co-Culture N = 2.

{"BINDER": "1C8 (antibody, V domains shown, fully human XenoMouse hybridoma antibody; tested as hybridoma supernatant and as purified antibody; also called MAb 1C8) VH: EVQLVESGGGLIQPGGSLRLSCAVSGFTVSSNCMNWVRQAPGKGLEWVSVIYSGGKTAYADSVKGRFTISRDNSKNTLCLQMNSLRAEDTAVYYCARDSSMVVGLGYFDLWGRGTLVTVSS VL: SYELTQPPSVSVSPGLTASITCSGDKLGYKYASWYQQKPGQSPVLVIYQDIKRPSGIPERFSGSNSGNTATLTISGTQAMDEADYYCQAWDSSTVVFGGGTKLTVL", "% Inh of Gli1 reporter, Co-Culture N = 2 / %": 24}
{"BINDER": "1G12 (antibody, V domains shown, fully human XenoMouse hybridoma antibody; tested as hybridoma supernatant and as purified antibody; also called MAb 1G12) VH: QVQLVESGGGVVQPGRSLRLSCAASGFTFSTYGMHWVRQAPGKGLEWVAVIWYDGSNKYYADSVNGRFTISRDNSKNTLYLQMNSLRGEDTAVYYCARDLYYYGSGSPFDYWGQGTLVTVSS VL: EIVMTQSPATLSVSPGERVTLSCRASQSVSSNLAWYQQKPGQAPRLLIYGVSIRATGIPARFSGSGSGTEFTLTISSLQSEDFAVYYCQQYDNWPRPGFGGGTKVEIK", "% Inh of Gli1 reporter, Co-Culture N = 2 / %": 35}
{"BINDER": "1A12 (antibody, V domains shown, fully human XenoMouse hybridoma antibody; tested as hybridoma supernatant and as purified antibody; also called MAb 1A12) VH: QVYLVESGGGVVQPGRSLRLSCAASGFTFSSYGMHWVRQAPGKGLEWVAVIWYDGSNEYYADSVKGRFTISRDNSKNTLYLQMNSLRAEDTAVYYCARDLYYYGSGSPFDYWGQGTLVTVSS VL: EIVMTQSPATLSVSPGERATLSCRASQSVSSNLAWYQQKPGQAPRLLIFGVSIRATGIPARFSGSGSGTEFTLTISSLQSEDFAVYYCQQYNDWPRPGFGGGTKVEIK", "% Inh of Gli1 reporter, Co-Culture N = 2 / %": 32}
{"BINDER": "1A5 (antibody, V domains shown, fully human XenoMouse hybridoma antibody; tested as hybridoma supernatant and as purified antibody; also called MAb 1A5) VH: EVQVVESGGDLIQPGGSLRLSCVASGFTVSSNYMNWVRQAPGKGLEWVSVIYSGGNTYYADSVKGRFTISRDNSKNTLYLQMNSLRAEDTAVYYCARDSSVVVGLGYFDLWGRGTLVTVSS VL: SYELTQPPSVSVSPGQTASITCSGDKLGANYASWYQQKPGQSPVLVIFQDTKRPSGIPERFSGSNSGNTATLTISGTQAMDEADYYCQAWDFSTVIFGGGTKLTVL", "% Inh of Gli1 reporter, Co-Culture N = 2 / %": 27}
{"BINDER": "1G1 (antibody, V domains shown, fully human XenoMouse hybridoma antibody; also called MAb 1G1) VH: EVQLVESGGGLVKPGGSLRLSCAASGFTFSSYSMNWVRQAPGKGLEWVSSFSSSSSYIYYADSVKGRFTISRDNAKNSLYLQMNSLRAEDTAVYYCARDRGDYVDYYYGMDVWGQGTTVTVSS VL: SYELTQPPSVSVSPGQTASITCSGDKLDYKYICWYQQKPGQSPVLVIYQDIKRPSGIPERFSGSNSGNTATLTISGTQAMDEADYYCQAWDSNTPLVFGGGTKLTVL", "% Inh of Gli1 reporter, Co-Culture N = 2 / %": 39}
